The measurements presented in this section are drawn from ChEMBL document CHEMBL4330134.

System: Mycobacterium tuberculosis
run.description: Antimycobacterial activity against Mycobacterium tuberculosis H37Rv ATCC 27294 after 4 days by microplate Alamar blue assay
Type: functional
assay.conditions: H37Rv ATCC 27294, 96 h
Measured MIC values are reported for all entries that follow.
Report the value in mg/L with no unit label.

Study these solved cases before continuing.
{"columns": ["molecule.smiles", "endpoint.unit", "recorded.number"],
 "data": [
  ["COc1ccc(OC)c(C(=O)/C=C/C(=O)OC(C)C)c1", "mg/L", 1.48],
  ["CCOc1ccc(C(=O)/C=C/C(=O)OC(C)C)cc1", "mg/L", 0.47],
  ["CN(C)C(=O)/C=C/C(=O)c1ccc(Cl)c(Cl)c1", "mg/L", 0.84],
  ["CCCN(CCC)C(=O)/C=C/C(=O)c1ccc([N+](=O)[O-])cc1", "mg/L", 1.89],
  ["CCN(C)C(=O)/C=C/C(=O)c1ccc(Cl)c(Cl)c1", "mg/L", 0.24]
]}

Prompt: Fill in the blank: the reported MIC of `CN(C)C(=O)/C=C/C(=O)c1ccc(Cl)cc1Cl` is ____.
Response: 0.41

Prompt: Fill in the blank: the reported MIC of `CCCN(CCC)C(=O)/C=C/C(=O)c1ccccc1F` is ____.
Response: 0.94

Prompt: Fill in the blank: the reported MIC of `CCOc1ccc(C(=O)/C=C/C(=O)N(C)C)cc1` is ____.
Response: 0.48

Prompt: Fill in the blank: the reported MIC of `CC(C)OC(=O)/C=C/C(=O)c1ccc(Cl)cc1Cl` is ____.
Response: 1.01

Prompt: Fill in the blank: the reported MIC of `CN(C)C(=O)/C=C/C(=O)c1cccc(F)c1` is ____.
Response: 1.84
